Reported IC50 by item:
# Assay System: MAP kinase p38 (Homo sapiens, UniProt O15264+Q15759+Q16539+P53778)
# Test Name: Inhibition of p38 MAP kinase (unknown origin) by biochemical assay
# Type: protein assay

# Chemical Smiles, Unit Abbrev, Comparator, IC50
data = [
    ("O=C(c1cnc(Nc2cccc([N+](=O)[O-])c2F)s1)c1ccccc1Cl", "nM", "=", 12700),
    ("Cc1ccccc1C(=O)c1cnc(Nc2ccccc2)s1", "nM", "=", 116000),
    ("O=C(c1cnc(Nc2ccc(O)cc2F)s1)c1ccccc1Cl", "nM", "=", 250),
    ("Nc1ccc(Nc2ncc(C(=O)c3ccccc3Cl)s2)cc1", "nM", ">", 200000),
    ("O=C(c1cnc(Nc2ccc(Br)cc2)s1)c1ccccc1Cl", "nM", "=", 940),
    ("Nc1cccc(Nc2ncc(C(=O)c3ccccc3Cl)s2)c1F", "nM", "=", 450),
    ("O=C(c1cnc(Nc2ccc(F)cc2)s1)c1ccccc1Cl", "nM", "=", 330),
    ("O=C(c1cnc(Nc2ccc(O)cc2)s1)c1ccccc1Cl", "nM", "=", 2040),
    ("COc1ccc(Nc2ncc(C(=O)c3ccccc3Cl)s2)cc1", "nM", "=", 1440),
]

* * *

# Assay System: MAP kinase p38 (Homo sapiens, UniProt O15264+Q15759+Q16539+P53778)
# Test Name: Inhibition of p38 MAP kinase (unknown origin) by biochemical assay
# Type: protein assay

# Chemical Smiles, Unit Abbrev, IC50
measured = [
    ("O=C(c1cnc(Nc2ccccc2F)s1)c1ccccc1Cl", "nM", 790),
    ("O=C(Nc1cccc(Nc2ncc(C(=O)c3ccccc3Cl)s2)c1)c1ccccc1", "nM", 1200),
    ("Nc1cccc(Nc2ncc(C(=O)c3ccccc3Cl)s2)c1", "nM", 16200),
    ("O=C(c1cnc(Nc2ccc(Cl)cc2)s1)c1ccccc1Cl", "nM", 910),
    ("COc1cccc(C(=O)c2cnc(Nc3ccccc3)s2)c1", "nM", 1230),
    ("O=C(c1cccc(O)c1)c1cnc(Nc2ccccc2)s1", "nM", 1310),
    ("O=C(c1ccccc1)c1cnc(Nc2ccccc2)s1", "nM", 1070),
]
